Tested on: ATF4 luciferase reporter in HEK293T cells
Assay comment: ATF4-Luc assay (in vitro model of VWMD)
Assay type: cell-based, human
Condition parameters: Homo sapiens, HEK-293T, 7 h, HEK293T cells carrying the ATF4 luciferase reporter, 1 μg/mL tunicamycin, One Glo luminescence
Measurement type: EC50

Please review the following examples before continuing.
| Compound | System tested | Test value |
| --- | --- | --- |
| O=C(NC12CCC(n3cc(OCCCOC(F)(F)F)cn3)(C1)C2)[C@H]1C[C@@H](O)c2cc(Cl)c(F)cc2O1 [Compound 629] | ATF4 luciferase reporter in HEK293T cells | 10 to 50 nM |
| O=C(NC12CC(n3cc(-c4ccc(C(F)F)cn4)cn3)(C1)C2)[C@H]1C[C@@H](O)c2cc(Cl)ccc2O1 [Compound 568] | ATF4 luciferase reporter in HEK293T cells | < 10 nM |
| O=C(NC12CC(n3cc(-c4ccc(C(F)(F)F)cn4)cn3)(C1)C2)[C@H]1C[C@@H](O)c2cc(Cl)ccc2O1 [Compound 364] | ATF4 luciferase reporter in HEK293T cells | < 10 nM |
| C[Si]1(C)CCN(C(=O)c2cnn(C34CC(NC(=O)[C@H]5C[C@@H](O)c6cc(Cl)ccc6O5)(C3)C4)c2)C1 [Compound 401] | ATF4 luciferase reporter in HEK293T cells | 250 to 500 nM |
| O=C(NC12CC(n3cc(-c4ccc(C(F)(F)F)cn4)cn3)(C1)C2)[C@H]1C[C@H](O)c2cc(C(F)(F)F)c(F)cc2O1 [Compound 640] | ATF4 luciferase reporter in HEK293T cells | < 10 nM |
| O=C(N[C@H]1CC[C@H](n2cc(OCCOC(F)(F)F)cn2)CC1)[C@H]1C[C@@H](O)c2cc(Cl)c(F)cc2O1 [Compound 419] | ATF4 luciferase reporter in HEK293T cells | < 10 nM |
| O=C(CO[C@H]1C[C@@H](OC(F)(F)F)C1)NC12CC(NC(=O)[C@@H]3C[C@@H](O)c4cc(Cl)ccc4O3)(C1)C2 [Compound 208] | ATF4 luciferase reporter in HEK293T cells | < 10 nM |
| O=C(COc1ccc(Cl)c(F)c1)NC12CC(n3cc([C@H]4C[C@@H](OC(F)(F)F)C4)nn3)(C1)C2 [Compound 620] | ATF4 luciferase reporter in HEK293T cells | < 10 nM |

Below: the item to evaluate.
For record O=C(NC12CC(n3cnc(-c4ccc(Cl)cc4F)c3)(C1)C2)[C@H]1C[C@@H](O)c2cc(Cl)ccc2O1 [Compound 343] the listed EC50 is < 10 nM
